Test: Rat pilot single-dose oral pharmacokinetic study with Compound EC
Type: in vivo
Details: Sprague-Dawley, rat; male rats, 100 mg/kg single oral gavage, plasma; read-out: AUC0-24
observation type: AUC(0-t) (µg·h/mL)
# number only, unit µg·h/mL dropped from output

For the molecule Cc1cccc(C)c1COc1cccc(Cc2nnn[nH]2)c1 [Compound EC] , what AUC(0-t) is on record?
672

###

Experiment: Rat pilot single-dose oral pharmacokinetic study with Compound EC
Type: in vivo
Conditions: male, Sprague-Dawley, rat, plasma; 100 mg/kg single oral gavage, 8 HR
observation type: concentration at 8 h (µg/mL)
# number only, unit µg/mL dropped from output

For the molecule Cc1cccc(C)c1COc1cccc(Cc2nnn[nH]2)c1 , what concentration at 8 h is on record?
54
